This collection of values is drawn from patent US6783973B1.

# Tested on: human catecholamine receptor
# experimentDescription: MAP kinase pathway stimulation, Elk-gal/luciferase reporter assay in HEK 293 cells transfected with H2-3pcDNA3.1
# conditionLabel: HEK 293 cells expressing FLAG/D2-tagged human catecholamine receptor; compared with cells incubated in the absence of the ligand
property: fold stimulation of luciferase (MAP kinase activation), H2-3 pcDNA3.1
Please answer in the form of a number followed by its unit of measurement.

Use these answered entries as a reference point.
NCCc1c[nH]c2ccc(O)cc12 : 1.22 fold
C=CCN1CCc2c(cc(O)c(O)c2Cl)C(c2ccccc2)C1 (stereo not shown) : 2.52 fold
NC1CCc2cc(O)c(O)cc2C1 (stereo not shown) : 1.93 fold

Okay, next one:
(Q) Query (molecule): NC[C@H](O)c1ccc(O)c(O)c1 [Norepinephrine] ; field requested: fold stimulation of luciferase (MAP kinase activation), H2-3 pcDNA3.1
(A) 1.69 fold
